I'd be grateful if you could share measured Activity for these entries.
Test: Drug extrusion in human CD4 positive cells assessed as change in mean fluorescence intensity at 5 x 10^-8 M preincubated for 20 mins followed by growth in photosensitizer-free media for 30 mins by flow cytometric analysis relative to control
Format: cell-based
Settings: 0.5 h, 0.05 µM
Give bare numbers, in %.

Some solved entries appear below for comparison.
smiles_str=S=C(c1ccc(C2=c3cc4c5c(c3[Se]c3c2cc2c6c3CCCN6CCC2)CCC[N+]=5CCC4)s1)N1CCCCC1.[Cl-] metric=Activity experimental_result=36.1
smiles_str=O=C(c1ccc(C2=c3cc4c5c(c3[Se]c3c2cc2c6c3CCCN6CCC2)CCC[N+]=5CCC4)s1)N1CCCCC1.[Cl-] metric=Activity experimental_result=59.1
smiles_str=CN1CCC(C)(C)c2cc3c(cc21)[Se]c1cc2c(cc1=C3c1ccc(C(=S)N3CCCCC3)s1)C(C)(C)CC[N+]=2C.[Cl-] metric=Activity experimental_result=42.8
smiles_str=C[N+]1=c2cc3c(cc2C(C)(C)CC1)=C(c1ccc(C(=S)N2CCCCC2)s1)c1cc2c4c(c1[Se]3)CCCN4CCC2.[Cl-] metric=Activity experimental_result=37.7
smiles_str=CN1CCC(C)(C)c2cc3c(cc21)[Se]c1cc2c(cc1=C3c1ccc(C(=O)N3CCCCC3)s1)C(C)(C)CC[N+]=2C.[Cl-] metric=Activity experimental_result=53.3

Alright, here's another compound for you.
input: Give the value of Activity reported for the following: `C[N+]1=c2cc3c(cc2C(C)(C)CC1)=C(c1ccc(C(=O)N2CCCCC2)s1)c1cc2c4c(c1[Se]3)CCCN4CCC2.[Cl-]`
output: 54.1

---

Tested on: ABCB1
Experiment: Passive permeability in dog MDCK2-MDR1 cells expressing ABCB1 at 5 uM after 30 mins in presence of compound 15 by LC-MS/MS analysis
Type: ADME, cell-based, Canis lupus familiaris, MDCK-II
Conditions: MDCK-MDR1, with compound 15 (concentration not stated), read-out: permeability
metric: Papp at 0.5 h, 5 µM (×10⁻⁶ cm/s)
Numbers only, in ×10⁻⁶ cm/s.

Some solved entries appear below for comparison.
smiles_str=O=C(c1ccc(C2=c3cc4c5c(c3[Se]c3c2cc2c6c3CCCN6CCC2)CCC[N+]=5CCC4)s1)N1CCCCC1.[Cl-] measured_target=ABCB1 metric="Papp at 0.5 h, 5 µM" experimental_result=0.2
smiles_str=CN1CCC(C)(C)c2cc3c(cc21)[Se]c1cc2c(cc1=C3c1ccc(C(=O)N3CCCCC3)s1)C(C)(C)CC[N+]=2C.[Cl-] measured_target=ABCB1 metric="Papp at 0.5 h, 5 µM" experimental_result=0.2

Alright, here's another molecule for you.
input: Give the value of Papp at 0.5 h, 5 µM reported for the following: `C[N+]1=c2cc3c(cc2C(C)(C)CC1)=C(c1ccc(C(=O)N2CCCCC2)s1)c1cc2c4c(c1[Se]3)CCCN4CCC2.[Cl-]`
output: 0.1

---

Assay: Drug extrusion in SEB-stimulated human CD25 negative cells assessed as change in mean fluorescence intensity at 5 x 10^-8 M preincubated for 20 mins followed by growth in photosensitizer-free media for 30 mins by flow cytometric analysis relative to control
Conditions: 0.5 h, 0.05 µM
metric: Activity (%)
Give bare numbers, in %.

Some solved entries appear below for comparison.
smiles_str=S=C(c1ccc(C2=c3cc4c5c(c3[Se]c3c2cc2c6c3CCCN6CCC2)CCC[N+]=5CCC4)s1)N1CCCCC1.[Cl-] metric=Activity quantity_unit=% experimental_result=35.2
smiles_str=O=C(c1ccc(C2=c3cc4c5c(c3[Se]c3c2cc2c6c3CCCN6CCC2)CCC[N+]=5CCC4)s1)N1CCCCC1.[Cl-] metric=Activity quantity_unit=% experimental_result=59.8
smiles_str=C[N+]1=c2cc3c(cc2C(C)(C)CC1)=C(c1ccc(C(=O)N2CCCCC2)s1)c1cc2c4c(c1[Se]3)CCCN4CCC2.[Cl-] metric=Activity quantity_unit=% experimental_result=58.6
smiles_str=C[N+]1=c2cc3c(cc2C(C)(C)CC1)=C(c1ccc(C(=S)N2CCCCC2)s1)c1cc2c4c(c1[Se]3)CCCN4CCC2.[Cl-] metric=Activity quantity_unit=% experimental_result=32.9
smiles_str=CN1CCC(C)(C)c2cc3c(cc21)[Se]c1cc2c(cc1=C3c1ccc(C(=O)N3CCCCC3)s1)C(C)(C)CC[N+]=2C.[Cl-] metric=Activity quantity_unit=% experimental_result=58

Alright, here's another compound for you.
input: Give the value of Activity reported for the following: `CN1CCC(C)(C)c2cc3c(cc21)[Se]c1cc2c(cc1=C3c1ccc(C(=S)N3CCCCC3)s1)C(C)(C)CC[N+]=2C.[Cl-]`
output: 30.7

---

Test: Phototoxicity human CD4 positive cells co-cultured with GFP expressing human HUT78 cells assessed as cell survival at 7.5 x 10^-8 M preincubated 20 mins in photosensitizer media followed by growth in photosensitizer-free media for 30 mins measured 18 hrs after exposure to 5 J/cm2 irradiation by FACS analysis
Type: cell-based
Conditions: read-out: Survival
metric: viability at 18 h, 0.075 µM (%)
Answers are plain numbers, in %.

smiles_str=CN1CCC(C)(C)c2cc3c(cc21)[Se]c1cc2c(cc1=C3c1ccc(C(=O)N3CCCCC3)s1)C(C)(C)CC[N+]=2C.[Cl-] experimental_result=1.1

I would be grateful if you could provide viability at 18 h, 0.075 µM for each of the following entries.
1. O=C(c1ccc(C2=c3cc4c5c(c3[Se]c3c2cc2c6c3CCCN6CCC2)CCC[N+]=5CCC4)s1)N1CCCCC1.[Cl-]
2. S=C(c1ccc(C2=c3cc4c5c(c3[Se]c3c2cc2c6c3CCCN6CCC2)CCC[N+]=5CCC4)s1)N1CCCCC1.[Cl-]
3. C[N+]1=c2cc3c(cc2C(C)(C)CC1)=C(c1ccc(C(=O)N2CCCCC2)s1)c1cc2c4c(c1[Se]3)CCCN4CCC2.[Cl-]

output:
1: 63.3; 2: 1.5; 3: 0.37

---

System: ABCB1
Test: Permeability from basolateral to apical side in dog MDCK2-MDR1 cells expressing ABCB1 at 5 uM after 30 mins in presence of compound 15 by LC-MS/MS analysis
Type: ADME, cell-based, Canis lupus familiaris, MDCK-II
Conditions: MDCK-MDR1, with compound 15 (concentration not stated), read-out: permeability
metric: Papp B→A at 0.5 h, 5 µM (×10⁻⁶ cm/s)
Answers are plain numbers, in ×10⁻⁶ cm/s.

Some solved entries appear below for comparison.
smiles_str=C[N+]1=c2cc3c(cc2C(C)(C)CC1)=C(c1ccc(C(=S)N2CCCCC2)s1)c1cc2c4c(c1[Se]3)CCCN4CCC2.[Cl-] measured_target=ABCB1 metric="Papp B→A at 0.5 h, 5 µM" experimental_result=0.032
smiles_str=C[N+]1=c2cc3c(cc2C(C)(C)CC1)=C(c1ccc(C(=O)N2CCCCC2)s1)c1cc2c4c(c1[Se]3)CCCN4CCC2.[Cl-] measured_target=ABCB1 metric="Papp B→A at 0.5 h, 5 µM" experimental_result=0.28
smiles_str=S=C(c1ccc(C2=c3cc4c5c(c3[Se]c3c2cc2c6c3CCCN6CCC2)CCC[N+]=5CCC4)s1)N1CCCCC1.[Cl-] measured_target=ABCB1 metric="Papp B→A at 0.5 h, 5 µM" experimental_result=0.057
smiles_str=CN1CCC(C)(C)c2cc3c(cc21)[Se]c1cc2c(cc1=C3c1ccc(C(=O)N3CCCCC3)s1)C(C)(C)CC[N+]=2C.[Cl-] measured_target=ABCB1 metric="Papp B→A at 0.5 h, 5 µM" experimental_result=0.4
smiles_str=CN1CCC(C)(C)c2cc3c(cc21)[Se]c1cc2c(cc1=C3c1ccc(C(=S)N3CCCCC3)s1)C(C)(C)CC[N+]=2C.[Cl-] measured_target=ABCB1 metric="Papp B→A at 0.5 h, 5 µM" experimental_result=0.013

input: Give the value of Papp B→A at 0.5 h, 5 µM reported for the following: `O=C(c1ccc(C2=c3cc4c5c(c3[Se]c3c2cc2c6c3CCCN6CCC2)CCC[N+]=5CCC4)s1)N1CCCCC1.[Cl-]`
output: 0.48

---

Experiment: N-octanol/water partition coefficient, logP of the compound at 23 degC after 1 hr by HPLC based shake flask method
Type: physicochemical
metric: logP
Answers are plain numbers.

smiles_str=CN1CCC(C)(C)c2cc3c(cc21)[Se]c1cc2c(cc1=C3c1ccc(C(=O)N3CCCCC3)s1)C(C)(C)CC[N+]=2C.[Cl-] metric=logP experimental_result=3.42
smiles_str=C[N+]1=c2cc3c(cc2C(C)(C)CC1)=C(c1ccc(C(=O)N2CCCCC2)s1)c1cc2c4c(c1[Se]3)CCCN4CCC2.[Cl-] metric=logP experimental_result=3.51
smiles_str=CN1CCC(C)(C)c2cc3c(cc21)[Se]c1cc2c(cc1=C3c1ccc(C(=S)N3CCCCC3)s1)C(C)(C)CC[N+]=2C.[Cl-] metric=logP experimental_result=3.7

input: Give the value of logP reported for the following: `C[N+]1=c2cc3c(cc2C(C)(C)CC1)=C(c1ccc(C(=S)N2CCCCC2)s1)c1cc2c4c(c1[Se]3)CCCN4CCC2.[Cl-]`
output: 3.78
